Reference source: paper PMC5700166

- STUDY TARGET: GST-Hu-p50 (Homo sapiens, UniProt P19838 7-356)
- Sequence (P19838 7-356): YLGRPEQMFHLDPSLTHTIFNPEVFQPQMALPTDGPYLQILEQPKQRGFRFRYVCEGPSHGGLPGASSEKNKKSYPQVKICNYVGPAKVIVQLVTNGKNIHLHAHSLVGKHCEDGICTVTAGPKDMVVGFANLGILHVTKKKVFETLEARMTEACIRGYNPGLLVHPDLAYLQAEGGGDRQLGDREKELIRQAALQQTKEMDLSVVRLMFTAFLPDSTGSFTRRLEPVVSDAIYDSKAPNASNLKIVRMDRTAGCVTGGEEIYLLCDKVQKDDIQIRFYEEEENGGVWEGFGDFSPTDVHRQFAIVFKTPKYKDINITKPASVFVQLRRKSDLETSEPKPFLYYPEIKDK
- METHOD: protein-binding microarray (PBM); PBM: ~300 nM protein, 6 mM HEPES pH 7.8, 80 mM KCl, 0.5 mM EDTA, 0.5 mM EGTA, 6% glycerol, 35 ng/ul poly-dIdC, 1% milk, 1 h, room temperature; Ap Aiptasia and Nv Nematostella (sea anemones) / Co Capsaspora / Aq Amphimedon (sponge) / Dm Drosophila / Hu human; RHD is the Rel homology domain; high values mean tight binding
- CONDITIONS USED: dsDNA, one strand shown
MEASUREMENT LABEL: binding signal (z-score)
Write down the numeric answer in z-score and omit the unit.

These recorded examples may help you get a feel for the data.
Item: CCGATTAACATCAGGGGAAGGAATGATGTTAATCGGGTCTTGATTCGCTTGACGCTGCTG | binding signal: 3.5

For CCGATTAACATCAAAAAAATACCTGATGTTAATCGGGTCTTGATTCGCTTGACGCTGCTG the sequence record lists binding signal as 3.43

What the record says about CCGATTAACATCAGGGACTCCCATGATGTTAATCGGGTCTTGATTCGCTTGACGCTGCTG : binding signal is 3.34

CCGATTAACATCAAAAAAAGTCCTGATGTTAATCGGGTCTTGATTCGCTTGACGCTGCTG yielded binding signal of 2.19

Form: sequence = CCGATTAACATCAGGTTTTCCCATGATGTTAATCGGGTCTTGATTCGCTTGACGCTGCTG ; binding signal = 3.27

Further cases:
The sequence listed as CCGATTAACATCAGGAAAAGCCCTGATGTTAATCGGGTCTTGATTCGCTTGACGCTGCTG shows binding signal equal to 2.56

# binding signal of CCGATTAACATCACGGTATTTCCTGATGTTAATCGGGTCTTGATTCGCTTGACGCTGCTG = 1.48

Sure, the documented binding signal for CCGATTAACATCACTACTTTCCCTGATGTTAATCGGGTCTTGATTCGCTTGACGCTGCTG is 3.06

Notebook: CCGATTAACATCAAGGGAAAATATGATGTTAATCGGGTCTTGATTCGCTTGACGCTGCTG , binding signal read as 4.8
